Source: patent US20260232673A1

target: CCDC6-RET fusion (Homo sapiens, UniProt P07949+Q16204+Q96SW2); construct: CCDC6 (N-terminal fusion partner from the natural gene rearrangement, Q16204); endogenous in cells; host or cells: TPC-1 (parental) papillary thyroid carcinoma cells; experiment: Cellular RET degradation assay (AlphaLISA Surefire Ultra, TPC-1 cells); assay type: cell-based; settings: half-maximal degradation concentration (DC50); parental TPC-1/CCDC6-RET cell line; 24 hrs compound treatment; AlphaLISA luminescence; read-out: Cell Density TPC-1/CCDC6-RET IC50
Sequence (Q16204+P07949 fused): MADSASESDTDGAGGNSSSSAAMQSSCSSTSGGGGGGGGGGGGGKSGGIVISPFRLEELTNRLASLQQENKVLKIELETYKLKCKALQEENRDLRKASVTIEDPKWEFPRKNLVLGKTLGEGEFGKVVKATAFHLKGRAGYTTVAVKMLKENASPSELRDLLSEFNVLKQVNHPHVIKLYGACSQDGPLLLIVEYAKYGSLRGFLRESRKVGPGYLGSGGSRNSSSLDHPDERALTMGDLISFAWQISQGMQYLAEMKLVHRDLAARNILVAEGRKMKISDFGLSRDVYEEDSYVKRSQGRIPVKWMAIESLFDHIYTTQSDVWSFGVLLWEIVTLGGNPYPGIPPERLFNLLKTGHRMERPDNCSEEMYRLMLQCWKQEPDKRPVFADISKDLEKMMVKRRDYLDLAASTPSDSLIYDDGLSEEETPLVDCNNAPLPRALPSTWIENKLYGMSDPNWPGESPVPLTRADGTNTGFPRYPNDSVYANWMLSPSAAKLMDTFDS
Sequence (Q96SW2 whole entry, the tested form may be a part): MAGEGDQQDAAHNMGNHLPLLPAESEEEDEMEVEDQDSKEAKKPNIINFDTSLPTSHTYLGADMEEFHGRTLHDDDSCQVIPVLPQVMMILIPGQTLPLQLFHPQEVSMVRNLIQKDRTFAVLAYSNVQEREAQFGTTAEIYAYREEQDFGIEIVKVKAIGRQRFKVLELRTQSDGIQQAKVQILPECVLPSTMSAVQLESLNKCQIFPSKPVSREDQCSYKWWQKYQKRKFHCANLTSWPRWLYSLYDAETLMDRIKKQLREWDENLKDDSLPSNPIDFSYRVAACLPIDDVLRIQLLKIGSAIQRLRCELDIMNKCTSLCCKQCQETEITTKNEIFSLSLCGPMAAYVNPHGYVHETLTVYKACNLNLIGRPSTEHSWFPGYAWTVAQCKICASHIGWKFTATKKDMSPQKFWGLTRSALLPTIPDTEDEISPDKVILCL
reported endpoint: DC50 (nM)

In the examples that follow, each entry is paired with its recorded DC50.
- compound: "Nc1ncnc2c1c(-c1noc(C3CC3)c1-c1ccccn1)nn2[C@H]1C[C@H](C(=O)NCCCCN2CCC(c3ccc4c(c3)C(=O)N(C3CCC(=O)NC3=O)C4)CC2)C1 (some centres unmarked)"
  unit abbreviation: "nM"
  DC50: 17.4
- compound: "CC(C)n1nc(-c2noc(C3CC3)c2-c2cn(C3CCN(C(=O)CCCCCCN4CCC(c5ccc6c(c5)CN(C5CCC(=O)NC5=O)C6=O)CC4)CC3)cn2)c2c(N)ncnc21 (centres unmarked)"
  unit abbreviation: "nM"
  DC50: 2.02
- compound: "COC1(C(=O)N[C@@H](CCCNC(=O)CCCCCCN2CCN(c3ccc4c(c3)CN(C3CCC(=O)NC3=O)C4=O)CC2)c2ccc(-n3cc(F)cn3)nc2)CCN(c2nc(C)cc(Nc3cc(C)[nH]n3)n2)CC1 (some centres unmarked)"
  unit abbreviation: "nM"
  DC50: 13.2

P = Nc1ncnc2c1c(-c1noc(C3CC3)c1-c1ccccn1)nn2[C@H]1C[C@H](C(=O)NCCCCCCN2CCN(c3ccc4c(c3)C(=O)N(C3CCC(=O)NC3=O)C4)CC2)C1 (some centres unmarked)
Q = Nc1ncnc2c1c(-c1noc(C3CC3)c1-c1ccccn1)nn2[C@H]1C[C@H](C(=O)NCCCCCCN2CCC(c3ccc4c(c3)CN(C3CCC(=O)NC3=O)C4=O)CC2)C1 (some centres unmarked)
Ask | Which numeric DC50 is bigger, that of P or that of Q ? Please respond with the label that marks your chosen entry.
Reply | Q
